B1: Gamma-crystallin C, residues 4 to 79; numbered along this chain, P07315 (parent)
chain: ITFYEDRAFQGRSYETTTDCPNLQPYFSRCNSIRVESGCWMLYERPNYQGQQYLLRRGEYPDYQQWMGLSDSIRSC

Variants of: B1
PROTOCOL DETAILS: abundance fitness (aPCA) (normalised: wild type 0, dead -1); higher = more abundant; growth selection in yeast, the domain comes from the species named
EXPERIMENTAL PARAMETERS: Homo sapiens
Please note: 1 applies when abundance fitness is -0.02 or greater, and -1 applies otherwise.

# VARIANT IDENTIFIER, GROUP
data = [
    ("C30S", 1),
    ("P61C", -1),
    ("R57V", 1),
    ("P61Y", 1),
    ("R7A", -1),
    ("S13T", -1),
    ("R74A", 1),
    ("T17K", -1),
    ("Q10V", 1),
    ("G38H", -1),
    ("L69Q", 1),
    ("L55R", -1),
    ("T17I", -1),
    ("Q49D", -1),
    ("R12K", 1),
    ("Y4A", -1),
    ("I1M", -1),
    ("R57Q", 1),
    ("E59N", -1),
]
